# ASSAY PROCEDURE: in vitro
# DETAILS: human, keratinocytes, therapeutic safety margin
OBSERVED PROPERTY: selectivity ratio

INSERT INTO measurements (compound, result) VALUES
  ('CCOC(=O)c1ccccc1OC(=O)CCCCCCCC(=O)Oc1ccccc1C(=O)OCC [di(ethyl salicylate)azelate]', '6.6 to 10');

Turning now to a further record.
INPUT: Recorded selectivity ratio of CC1=C(/C=C/C(C)=C/C=C/C(C)=C/COC(=O)CCCCCCCC(=O)OC/C=C(C)/C=C/C=C(C)/C=C/C2=C(C)CCCC2(C)C)C(C)(C)CCC1 [Di-retinyl azelate, di-retinyl azelate] , please.
OUTPUT: 6.6 to 10

// provenance: patent US6180669A
